The reported measurements were obtained from PubChem BioAssay (NCI).

- Test system: HL-60(TB) leukemia
- method: NCI tumour cell line growth inhibition, 48 h; in the data active means GI50 below about 0.43 µM; inactive means the rest
Possible outcomes: y = active, n = inactive

1. CN1C(=O)C(c2c[nH]c3ccccc23)=C(c2c[nH]c3ccccc23)C1=O; n
2. CCCCn1c(=O)[nH]c(N)c([C@@H]2c3c([nH]c(=O)n(CCCC)c3=O)Oc3ccc4ccccc4c32)c1=O; n
3. O=C(O)c1ccc(N(/C=C/C(=O)C(F)(F)F)Cc2ccc(Cl)cc2)cc1; n
4. O=[N+]([O-])c1ccc(C2=NCCO2)cc1; n
5. ClC1=C(Cl)C(Cl)(C2(Cl)C(Cl)=C(Cl)C(Cl)=C2Cl)C(Cl)=C1Cl; y
6. CC1=C(CCCOC(=O)[C@H](N)CC(C)C)C2=C(C)C3(CC3)[C@@](C)(O)C(=O)C2=C1; n
7. CC(C)=CCC/C(C)=C/CC/C(C)=C/CSC[C@H](NC(=O)CCCCCN1CCN(C)CC1)C(=O)NC1CCCCCC1; n
8. CCC(=C(c1ccc(OCCN2CCCCC2)cc1)c1ccc(OCCN2CCCCC2)cc1)c1ccc(Cl)cc1; n
9. CN1CCN(Cc2ccc(NC(=O)c3cncc(C#Cc4cnc(N)c5ncccc45)c3)cc2C(F)(F)F)CC1; y
10. Cn1ncnc1[C@@H]1c2n[nH]c(=O)c3cc(F)cc(c23)N[C@H]1c1ccc(F)cc1; n
11. O=c1[nH]c2ccccc2n1C1CCNCC1; n
12. CC1(C)N=C(N)N=C(N)N1c1ccc(OCCCNC(=O)Nc2ccc(S(=O)(=O)F)cc2)c(Cl)c1; y
13. CC(=O)/C(=C\c1ccc(Cl)cc1)c1ccccc1; y
14. N#CCCNc1nonc1-c1nc2ccccc2n1CC(=O)c1ccc(N)cc1; y
15. O=C([CH-]C(=O)c1ccccc1)c1ccccc1.O=C([CH-]C(=O)c1ccccc1)c1ccccc1.O=C([CH-]C(=O)c1ccccc1)c1ccccc1.[Ga+3]; n
16. COc1cc(/C=C2\CC3C4CC=C5CC(OC(C)=O)CC[C@]5(C)C4CC[C@]3(C)C2=O)ccc1OCCN1CCCC1 (stereo partly specified); n
